# Test system: Bovine cardiac myofibrils
# EXPERIMENT SUMMARY: In vitro model of dose-dependent myofibril ATPase modulation (AC1.4, pyruvate kinase/lactate dehydrogenase-coupled ATPase assay at pCa25)
# Assay type: biochemical
# CONDITIONS USED: concentration at which ATPase activity was 1.4-fold higher than the bottom of the dose curve, mean of a minimum of two independent tests
Each entry below carries its recorded AC1.4.
PARAMETER: AC1.4 (µM)

compound=CS(=O)(=O)C1CN(S(=O)(=O)N2CCC[C@H](C(=O)N3CCC[C@@H]3C(=O)NCc3cc(F)cc(F)c3)C2)C1 parameter=AC1.4 readout_unit=µM measurement=1.6075
compound=CCS(=O)(=O)c1cccc(C(=O)N2[C@@H](C(=O)N[C@@H](c3ccc(C(F)(F)F)cc3)C3(O)CCC3)C[C@H]3C[C@H]32)c1 parameter=AC1.4 readout_unit=µM measurement=2.4145
compound=O=C(N[C@@H](c1cc(F)c(Cl)cc1F)C1CC1)[C@H]1C[C@H]2C[C@H]2N1C(=O)c1cncc(C(F)(F)F)c1 parameter=AC1.4 readout_unit=µM measurement=1.2265
compound="CCC(NC(=O)[C@H]1CCCN1C(=O)[C@H]1CCCN(S(=O)(=O)N2CC(C#N)C2)C1)c1ccc(OC)cc1 (stereo partly drawn)" parameter=AC1.4 readout_unit=µM measurement=4.01
compound=CC(C)(C)Nc1ccc(S(C)(=O)=O)cc1C(=O)N1CCC[C@@H]1C(=O)N[C@@H](c1ccc(C(F)(F)F)cc1F)C1CC1 parameter=AC1.4 readout_unit=µM measurement=0.3372
compound=N#CC1CN(S(=O)(=O)c2cccc(C(=O)N3C[C@H](F)C[C@@H]3C(=O)NCc3ccc(C(F)(F)F)cc3)c2)C1 parameter=AC1.4 readout_unit=µM measurement=0.1858
